Target entity: UniProt:Q965D7
Sequence (Q965D7 whole entry): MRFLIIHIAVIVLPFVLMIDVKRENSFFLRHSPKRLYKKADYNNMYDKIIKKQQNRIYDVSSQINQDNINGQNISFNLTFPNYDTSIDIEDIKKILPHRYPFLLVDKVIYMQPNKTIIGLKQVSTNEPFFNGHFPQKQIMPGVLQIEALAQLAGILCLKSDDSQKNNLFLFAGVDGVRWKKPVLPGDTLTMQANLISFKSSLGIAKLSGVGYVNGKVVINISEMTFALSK
Test name: Inhibition of recombinant Plasmodium falciparum FabZ using crotonoyl-CoA as substrate after 10 mins
Measured property: log10(IC50) (log10 of the value in µM)

Compound: O=c1oc2cc(O)cc(O)c2cc1Oc1ccc(Cl)cc1O
log10(IC50): 1.95
--
Compound: O=c1oc2cc(O)ccc2cc1Oc1ccc(Cl)cc1O
log10(IC50): 1.21
--
Compound: Cc1c(Oc2ccc(Cl)cc2O)c(=O)oc2ccccc12
log10(IC50): 1.11
--
Compound: O=C(O[C@@H]1Cc2c(O)cc(O)cc2O[C@@H]1c1cc(O)c(O)c(O)c1)c1cc(O)c(O)c(O)c1 [EPIGALOCATECHIN GALLATE]
log10(IC50): -1.52
--
Compound: O=c1oc2cc(O)ccc2cc1-c1ccc(Oc2ccc(Cl)cc2O)cc1
log10(IC50): 1.00
--
Compound: Cc1c(Oc2ccc(Cl)cc2O)c(=O)oc2cc(O)ccc12
log10(IC50): 1.45

Each recorded value in this set is attributed to ChEMBL document CHEMBL2424603.
